pIC50: −log10 of the molar value.
A compilation of published pIC50 results with ASK1 (Homo sapiens (Human), UniProt Q99683).

>>> obs_value("COCCC(=O)N1CCc2cc(OC)c(C(=O)Nc3cccc(-c4nncn4C(C)C)n3)cc2C1")
"> 8.90"

For the compound CC(C)n1cnnc1-c1cccc(NC(=O)c2ccc3ccc(N4CC5(COC5)C4)nc3c2)n1 , give its measured pIC50 value. < 6.00

Read the entry CC(=O)OC[C@@H](C)n1nnnc1-c1cccc(NC(=O)c2cc(-n3cnc(C4CC4)c3)c(C)cc2F)n1 and write its reported pIC50. 6.00 to 7.00

Answer with the recorded pIC50 of COc1ccc(-c2coc3ccc(-c4nnc(SC)o4)cc23)cc1 only. < 5.00

Determine from records and report pIC50 for C[C@H](CO)n1nnnc1-c1cccc(NC(=O)c2cc3c(cc2F)CCN(C(=O)c2ccccn2)C3)n1 7.00 to 8.00

Identify measured pIC50 associated with Cc1cc(F)c(C(=O)Nc2cccc(-c3nncn3C(C)C)n2)cc1C1CC1C(=O)NC1CC1 (stereo not shown) < 8.00

Identify measured pIC50 corresponding to COCCNC(=O)c1ccc2c(c1)CN(c1cccc(-c3nncn3C3CC3)n1)C2=O > 6.70

Please report pIC50 for the following compound: CC(C)n1cnnc1-c1cccc(NC(=O)c2ccc3c(c2)CN(C(=O)OC2CCCC2)CC3)n1 7.00 to 8.00

Kindly indicate its recorded pIC50. Item: Cc1cc(F)c(C(=O)Nc2cccc(-n3nnnc3C(C)C)n2)cc1-n1cnc(C(C)(C)C)c1 8.00 to 9.00

Determine its reported pIC50: CC(C)n1cnnc1-c1cccc(NC(=O)c2cc3c(cc2F)CCN(C(=O)OCC(F)(F)F)C3)n1 8.00 to 8.90

Return pIC50 for the following compound: CC(C)n1nnnc1-c1cccc(NC(=O)c2cc3c(cc2F)CCNC3)n1 6.00 to 7.00
